test-target: Prostaglandin G/H synthase 2 (Homo sapiens, UniProt P35354)
Sequence (P35354 whole entry): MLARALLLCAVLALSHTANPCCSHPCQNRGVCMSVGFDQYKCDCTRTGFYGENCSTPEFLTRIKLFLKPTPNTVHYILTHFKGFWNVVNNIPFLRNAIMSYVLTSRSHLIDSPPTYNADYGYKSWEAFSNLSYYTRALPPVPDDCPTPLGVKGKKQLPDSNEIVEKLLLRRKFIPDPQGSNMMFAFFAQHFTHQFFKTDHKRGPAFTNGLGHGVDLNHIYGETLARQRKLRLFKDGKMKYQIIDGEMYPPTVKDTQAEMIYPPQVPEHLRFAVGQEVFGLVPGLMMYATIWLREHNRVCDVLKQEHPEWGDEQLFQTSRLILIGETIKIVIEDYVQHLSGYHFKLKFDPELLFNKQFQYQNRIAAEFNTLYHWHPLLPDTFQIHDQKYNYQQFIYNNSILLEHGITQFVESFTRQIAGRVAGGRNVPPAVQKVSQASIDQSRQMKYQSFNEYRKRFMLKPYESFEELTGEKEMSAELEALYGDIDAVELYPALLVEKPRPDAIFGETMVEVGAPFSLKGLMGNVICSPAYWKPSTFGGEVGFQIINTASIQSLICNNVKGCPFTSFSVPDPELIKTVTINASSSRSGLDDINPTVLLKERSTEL
test-description: Inhibition of human recombinant COX2 expressed in insect Sf21 cells assessed as inhibition of conversion of arachidonic acid to PGE2 preincubated for 15 mins before substrate addition measured after 5 mins by enzyme immunoassay
quantity-kind: pIC50
Hey, just a heads up that pIC50 is the negative log base 10 of the concentration in molar.

Value of measured pIC50 for the entry `CC(=O)c1c(O)cc(O)c(C/C=C(\C)CCC=C(C)C)c1O` : 6.40

* * *

test-target: UniProt:P48999
Sequence (P48999 whole entry): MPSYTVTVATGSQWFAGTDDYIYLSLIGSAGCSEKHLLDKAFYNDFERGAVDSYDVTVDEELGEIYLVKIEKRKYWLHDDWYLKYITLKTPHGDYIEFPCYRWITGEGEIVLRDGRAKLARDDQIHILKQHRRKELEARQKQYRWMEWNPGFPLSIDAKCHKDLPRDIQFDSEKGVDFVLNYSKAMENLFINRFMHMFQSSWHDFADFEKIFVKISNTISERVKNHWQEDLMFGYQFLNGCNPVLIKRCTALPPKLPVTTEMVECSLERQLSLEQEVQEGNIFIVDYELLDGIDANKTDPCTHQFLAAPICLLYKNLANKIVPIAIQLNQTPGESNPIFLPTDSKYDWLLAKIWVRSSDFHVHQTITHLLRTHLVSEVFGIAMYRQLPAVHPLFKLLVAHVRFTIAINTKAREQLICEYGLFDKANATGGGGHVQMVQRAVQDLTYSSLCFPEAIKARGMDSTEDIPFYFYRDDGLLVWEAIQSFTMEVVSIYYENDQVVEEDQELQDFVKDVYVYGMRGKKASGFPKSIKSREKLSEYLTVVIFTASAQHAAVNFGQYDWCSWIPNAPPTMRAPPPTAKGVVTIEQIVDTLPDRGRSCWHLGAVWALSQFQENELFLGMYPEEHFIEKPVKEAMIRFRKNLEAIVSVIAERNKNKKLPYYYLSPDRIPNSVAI
test-description: Inhibition of 5-LOX in calcium ionophore A23187-stimulated NMRI mouse macrophage assessed as inhibition of LTC4 production preincubated for 60 mins before stimulation measured after 2 hrs by ELISA
quantity-kind: pIC50
Quick note: pIC50 means taking -log10 of the concentration in moles per liter.

The compound `CC(=O)c1c(O)cc(O)c(C/C=C(\C)CCC=C(C)C)c1O` , when measured on UniProt:P48999, yielded pIC50 of 5.74

* * *

test-target: Prostaglandin G/H synthase 1 (Homo sapiens)
Sequence (P23219 whole entry): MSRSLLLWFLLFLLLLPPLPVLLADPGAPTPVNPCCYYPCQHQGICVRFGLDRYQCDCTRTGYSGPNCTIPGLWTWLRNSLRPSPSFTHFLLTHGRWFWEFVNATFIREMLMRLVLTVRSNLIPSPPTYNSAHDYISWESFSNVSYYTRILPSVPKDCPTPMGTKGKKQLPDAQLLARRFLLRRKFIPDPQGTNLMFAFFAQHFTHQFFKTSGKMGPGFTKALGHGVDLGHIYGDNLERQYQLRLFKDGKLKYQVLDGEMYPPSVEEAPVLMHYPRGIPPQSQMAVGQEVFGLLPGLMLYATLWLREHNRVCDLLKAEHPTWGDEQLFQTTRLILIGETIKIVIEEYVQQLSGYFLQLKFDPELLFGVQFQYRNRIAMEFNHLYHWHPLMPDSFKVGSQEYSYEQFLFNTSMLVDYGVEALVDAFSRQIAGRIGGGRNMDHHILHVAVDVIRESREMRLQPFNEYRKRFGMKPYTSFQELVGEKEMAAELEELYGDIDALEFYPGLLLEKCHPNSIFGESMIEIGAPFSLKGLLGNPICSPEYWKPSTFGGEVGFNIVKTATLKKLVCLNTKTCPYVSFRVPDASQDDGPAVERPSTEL
test-description: Inhibition of COX1 in human platelets assessed as inhibition of conversion of arachidonic acid to PGE2 preincubated for 15 mins before substrate addition measured after 15 mins by enzyme immunoassay
quantity-kind: pIC50
Worth noting: pIC50 values are minus log10 of concentrations stated in mol/L.

Entry `CC(=O)c1c(O)cc(O)c(C/C=C(\C)CCC=C(C)C)c1O` — recorded pIC50 = 5.16
